assayedSystem: FGFr (human FGF-1 (flg) receptor tyrosine kinase) (Homo sapiens)
Construct: PCR primers are designed to amplify a fragment of DNA that codes for the intracellular tyrosine kinase domain; made in house; host or cells: Sf9 insect cells (baculovirus), cell lysate
Sequence (P11362 478-767 limits assumed): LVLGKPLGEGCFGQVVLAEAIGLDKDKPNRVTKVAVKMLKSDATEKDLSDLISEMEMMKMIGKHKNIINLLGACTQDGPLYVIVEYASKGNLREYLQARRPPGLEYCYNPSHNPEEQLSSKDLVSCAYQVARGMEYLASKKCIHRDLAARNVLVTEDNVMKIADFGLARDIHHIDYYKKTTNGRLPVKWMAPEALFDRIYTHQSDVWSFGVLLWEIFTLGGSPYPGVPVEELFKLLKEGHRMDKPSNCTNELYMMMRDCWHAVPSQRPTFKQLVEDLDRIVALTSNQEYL
assay: FGFr tyrosine kinase assay, 32P incorporation into glutamate-tyrosine copolymer
Type: biochemical
conditionLabel: 50 μM ATP; read-out: FGFr IC50
Entries and their measured pIC50 follow.
In simple prose, pIC50 is minus the logarithm base ten of a concentration in moles per litre.

Record excerpt, results attached:
>  <substanceSmiles>
CCn1c(=O)ccc2cnc(Nc3ccc(N4CCOCC4)cc3)cc21

>  <pIC50>
5.24

$$$$
>  <substanceSmiles>
Cn1c(=O)c(-c2c(Cl)cccc2Cl)cc2cnc(Nc3ccncc3)cc21

>  <pIC50>
5.48

$$$$
>  <substanceSmiles>
CCN(CC)CCCOc1ccc(Nc2cc3c(cn2)cc(-c2c(Cl)cccc2Cl)c(=O)n3C)cc1

>  <pIC50>
6.74

$$$$
>  <substanceSmiles>
CCN(CC)CCCCCNc1cc2c(cn1)cc(-c1c(Cl)cccc1Cl)c(=O)n2C

>  <pIC50>
7.15

$$$$
>  <substanceSmiles>
Cn1c(=O)c(-c2c(Cl)cccc2Cl)cc2cnc(N)cc21

>  <pIC50>
6.55

$$$$

Exercise: Fill blank: measured pIC50 of the molecule CCn1c(=O)ccc2cnc(Nc3ccc(N4CCCCC4)cc3)cc21 is ____.
Key: 4.91

Exercise: Fill blank: measured pIC50 of the molecule CCn1c(=O)ccc2cnc(Nc3ccccc3)cc21 is ____.
Key: 4.77

Exercise: Fill blank: measured pIC50 of the molecule COc1ccc(Nc2cc3c(cn2)cc(-c2c(Cl)cccc2Cl)c(=O)n3C)cc1 is ____.
Key: 5.92

Exercise: Fill blank: measured pIC50 of the molecule CNc1cc2c(cn1)cc(-c1c(Cl)cccc1Cl)c(=O)n2C is ____.
Key: 6.47

Exercise: Fill blank: measured pIC50 of the molecule CCN(CC)CCNc1cc2c(cn1)cc(-c1c(Cl)cccc1Cl)c(=O)n2C is ____.
Key: 5.43

Exercise: Fill blank: measured pIC50 of the molecule Cn1c(=O)c(-c2c(Cl)cccc2Cl)cc2cnc(Nc3ccccc3)cc21 is ____.
Key: 5.89

Exercise: Fill blank: measured pIC50 of the molecule CCn1c(=O)ccc2cnc(Nc3ccc(N4CCN(C)CC4)cc3)cc21 is ____.
Key: 5.85

Exercise: Fill blank: measured pIC50 of the molecule CCn1c(=O)ccc2cnc(Nc3ccc(OC)cc3)cc21 is ____.
Key: 4.98

Exercise: Fill blank: measured pIC50 of the molecule CCN(CC)CCCNc1cc2c(cn1)cc(-c1c(Cl)cccc1Cl)c(=O)n2C is ____.
Key: 6.66
